- PROTOCOL SUMMARY: Protective index was measured as TD50/MES ED50 in mice on po administration
- Type: ADME, organism-based
- MEASUREMENT CONDITIONS: mouse, in vivo, read-out: PI
PROPERTY MEASURED: selectivity ratio

Prompt: // fetch selectivity ratio given entry COC(=O)C1C(=O)C=C(NCc2ccccc2)CC1C (stereo unspecified)
Completion: > 3.1

----------
- PROTOCOL SUMMARY: Dose showing neurotoxicity in 50% of the at the time of peak neurotoxic effect in CF1 MICE after ip administration.
- Type: toxicity, organism-based
- MEASUREMENT CONDITIONS: CF1, mouse, in vivo
PROPERTY MEASURED: TD50

Prompt: // fetch TD50 given entry CCC1(c2ccccc2)C(=O)NC(=O)NC1=O [PHENOBARBITAL]
Completion: 92 mg/kg

Prompt: // fetch TD50 given entry `CC1(C)CC(O)=C/C(=N\Cc2ccccc2)C1`
Completion: 148 mg/kg

----------
- PROTOCOL SUMMARY: Protective index was measured as TD50/MES ED50 in mice on ip administration
- Assay type: ADME, organism-based
- MEASUREMENT CONDITIONS: mouse, in vivo, read-out: PI
PROPERTY MEASURED: selectivity ratio
Answer using only a numeral; do not append any unit.

Prompt: // fetch selectivity ratio given entry `CC1(C)CC(O)=C/C(=N\Cc2ccccc2)C1`
Completion: 2.8

----------
- PROTOCOL SUMMARY: Time of peak neurotoxic effect in CF1 MICE after ip administration.
- Assay type: ADME, organism-based
- MEASUREMENT CONDITIONS: mouse, in vivo
PROPERTY MEASURED: TPE
Answer using only a numeral; do not append any unit.

Prompt: // fetch TPE given entry `CCCC(CCC)C(=O)O`
Completion: 0.5

Prompt: // fetch TPE given entry `CCC1(c2ccccc2)C(=O)NC(=O)NC1=O`
Completion: 1

Prompt: // fetch TPE given entry `CC1(C)CC(O)=C/C(=N\Cc2ccccc2)C1`
Completion: 0.25

----------
Kindly supply the reported TPE values for the records listed here.
- PROTOCOL SUMMARY: Time of peak neurotoxic effect in CF1 mice
- Format: ADME
- MEASUREMENT CONDITIONS: mouse, in vivo
Answer using only a numeral; do not append any unit.

Prompt: // fetch TPE given entry `CC1(C)CC(O)=C/C(=N\c2ccccc2)C1`
Completion: 0.5

Prompt: // fetch TPE given entry COC(=O)C1C(O)=C/C(=N\Cc2ccccc2)CC1(C)C (configuration not stated)
Completion: 1

Prompt: // fetch TPE given entry `CCCC(CCC)C(=O)O`
Completion: 0.25

Prompt: // fetch TPE given entry COC(=O)C1C(=O)C=C(Nc2ccc(Cl)cc2)CC1C (configuration not stated)
Completion: 2

Prompt: // fetch TPE given entry COC(=O)C1C(=O)C=C(NCc2ccccc2)CC1C (configuration not stated)
Completion: 1

Prompt: // fetch TPE given entry `O=C1NC(=O)C(c2ccccc2)(c2ccccc2)N1`
Completion: 2

Prompt: // fetch TPE given entry NC(=O)N1c2ccccc2C=Cc2ccccc21 [CARBAMAZEPINE]
Completion: 0.25

----------
Kindly supply the reported Activity values for the records listed here.
- PROTOCOL SUMMARY: Antiepileptic activity in male CF1 mice 4 hr after administration measured in subcutaneous pentylenetetrazole (scMet) test at a dose of 100 mg/kg (no. of animals treated /protected); activity value is 0/1
- Type: functional, Mus musculus
Answer using only a numeral; do not append any unit.

Prompt: // fetch Activity given entry COC(=O)C1C(=O)C=C(Nc2ccc([N+](=O)[O-])cc2)CC1C (stereo not given)
Completion: 0

Prompt: // fetch Activity given entry COC(=O)C1C(O)=C/C(=N\CCc2ccccc2)CC1(C)C (stereo not given)
Completion: 0

Prompt: // fetch Activity given entry `CC1(C)CC(O)=C/C(=N\c2ccccc2)C1`
Completion: 0

Prompt: // fetch Activity given entry COC(=O)C1C(=O)C=C(Nc2cc(OC)ccc2OC)CC1C (stereo not given)
Completion: 0

Prompt: // fetch Activity given entry COC(=O)C1C(=O)C=C(Nc2ccc(Cl)cc2)CC1C (stereo not given)
Completion: 0

----------
- PROTOCOL SUMMARY: Dose showing neurotoxicity in 50% of the at the time of peak neurotoxic effect in CF1 MICE after po administration.
- Type: toxicity, organism-based
- MEASUREMENT CONDITIONS: CF1, mouse, in vivo
PROPERTY MEASURED: TD50

Prompt: // fetch TD50 given entry COC(=O)C1C(=O)C=C(NCc2ccccc2)CC1C (stereo unspecified)
Completion: > 500 mg/kg

----------
- PROTOCOL SUMMARY: Oral dose producing neurotoxic effects in 50% of rats
- Type: ADME, organism-based
- MEASUREMENT CONDITIONS: rat, in vivo
PROPERTY MEASURED: TD50

Prompt: // fetch TD50 given entry `O=C1NC(=O)C(c2ccccc2)(c2ccccc2)N1`
Completion: > 3000 mg/kg

Prompt: // fetch TD50 given entry `CC1(C)CC(O)=C/C(=N\c2ccccc2)C1`
Completion: > 250 mg/kg

Prompt: // fetch TD50 given entry COC(=O)C1C(=O)C=C(NCc2ccc(F)cc2)CC1C (stereo not given)
Completion: > 230 mg/kg

Prompt: // fetch TD50 given entry COC(=O)C1C(=O)C=C(NCc2ccccc2)CC1C (stereo not given)
Completion: > 500 mg/kg

Prompt: // fetch TD50 given entry COC(=O)C1C(=O)C=C(Nc2ccc(Cl)cc2)CC1C (stereo not given)
Completion: > 380 mg/kg

----------
- PROTOCOL SUMMARY: Protective index was measured as TD50/ED50
- Format: ADME
- MEASUREMENT CONDITIONS: read-out: PI
Kindly supply the reported selectivity ratio values for the records listed here.
Answer using only a numeral; do not append any unit.

Prompt: // fetch selectivity ratio given entry COC(=O)C1C(=O)C=C(Nc2ccc(Cl)cc2)CC1C (centres undefined)
Completion: 9.7

Prompt: // fetch selectivity ratio given entry `CC1(C)CC(O)=C/C(=N\c2ccccc2)C1`
Completion: 2.1

Prompt: // fetch selectivity ratio given entry COC(=O)C1C(=O)C=C(NCc2ccccc2)CC1C (centres undefined)
Completion: 7.7

Prompt: // fetch selectivity ratio given entry COC(=O)C1C(O)=C/C(=N\Cc2ccccc2)CC1(C)C (centres undefined)
Completion: 3.8

----------
- PROTOCOL SUMMARY: Dose protecting 50% of the mice from tonic hind limb extension at the time of […] after ip administration.
- Assay type: functional
- MEASUREMENT CONDITIONS: Mus musculus, Hindlimb
Kindly supply the reported ED50 values for the records listed here.
Answer in mg/kg, number only, no unit symbol.

Prompt: // fetch ED50 given entry `CCCC(CCC)C(=O)O`
Completion: 248

Prompt: // fetch ED50 given entry `CC1(C)CC(O)=C/C(=N\Cc2ccccc2)C1`
Completion: 53

Prompt: // fetch ED50 given entry COC(=O)C1C(=O)C=C(NCc2ccccc2)CC1C (stereo not given)
Completion: 42

Prompt: // fetch ED50 given entry COC(=O)C1C(=O)C=C(NCc2ccc(F)cc2)CC1C (stereo not given)
Completion: 159

Prompt: // fetch ED50 given entry `CCC1(c2ccccc2)C(=O)NC(=O)NC1=O`
Completion: 18
